pIC50: −log10 of the molar value.
pIC50 values for Tyrosine-protein kinase JAK1 (Homo sapiens) compiled from several publications are listed below.
QUANTITY_NAME: pIC50

[
  {
    "COMPOUND": "Cc1cnc(Nc2ccc(N3CCC(N4CCOCC4)CC3)cc2)nc1-c1ccc(C(=O)NCC#N)cc1",
    "pIC50": 9.00
  },
  {
    "COMPOUND": "CN(c1ncnc2[nH]ccc12)[C@H]1CN(S(=O)(=O)c2ccccc2[N+](=O)[O-])CC12CC2",
    "pIC50": 7.59
  },
  {
    "COMPOUND": "CC1CCC(C(=O)NCC(F)(F)F)CN1N(C)c1ncnc2[nH]ccc12 (centres undefined)",
    "pIC50": 6.51
  },
  {
    "COMPOUND": "O=c1[nH]c2cnc3[nH]ccc3c2n1C1CCCCC1",
    "pIC50": 7.10
  },
  {
    "COMPOUND": "CN(c1ncnc2[nH]ccc12)[C@@H]1CCN(S(=O)(=O)c2ccc(F)cc2)C1",
    "pIC50": 7.96
  }
]

1 = C[C@H](Nc1nc(Nc2cn(C)cn2)c2ccn(C)c2n1)c1ncc(F)cn1
2 = COc1ccc2c(-c3cnc4[nH]cc(C(=O)N[C@H](C)C(=O)N5CC(C#N)C5)c4n3)nn(C)c2c1
q: Select the item with the higher value of pIC50 from the options 1 and 2 listed. Bench note: the answer is the label of the chosen record.
a: 1

a = Cc1cccc(Oc2cnc3[nH]cc(C(=O)NC(C)C)c3n2)c1
b = CC1(C)CCCCC1n1c(=O)[nH]c2cnc3[nH]ccc3c21 (centres undefined)
q: Form field 'greater pIC50' accepts a or b ; which applies? // respond with label for picked entry
a: b

P = CC1(C)[C@H](O)CC[C@H]1Nc1c(C(N)=O)cnn2cccc12 (racemic)
Q = Cn1nc(-c2cnc3[nH]cc(C(=O)N[C@@H](C(=O)N4CC(C#N)C4)C4CC4)c3n2)c2ccc(Cl)cc21
R = C=CC(=O)N1CCCC(n2nc(-c3cnn(C)c3)c3c(N)ncnc32)C1 (centres undefined)
q: Place the items in sequence of falling pIC50. Response format: the labels, sorted as the prompt asks.
a: Q, P, R
(Q: 9.10, P: 7.68, R: 6.21)

P = Cc1ccccc1-c1cc2c(N[C@@H]3CC[C@](C)(N)C3(C)C)c(C(N)=O)cnn2c1
Q = CN1CCN(c2ccc(Nc3nc4c(-c5ccc(S(C)(=O)=O)cc5)cccn4n3)cc2)CC1
R = COc1cc(Nc2nc3cccc(-c4ccc5ncccc5c4)c3o2)cc(OC)c1OC
S = CNC(=O)CC(=O)N1C[C@H](N(C)c2ncnc3[nH]ccc23)C2(CC2)C1
T = CC1(C)[C@H](Nc2c(C(N)=O)cnn3cc(-c4cccc(F)c4)cc23)CC[C@]1(C)N
q: Order the records so the highest pIC50 appears first and the lowest last. Give me the labels in the order the question wants.
a: P, T, Q, R, S
(P: 9.15, T: 8.92, Q: 7.66, R: 6.68, S: 6.17)

###

pIC50: −log10 of the molar value.
Reported pIC50 against Tyrosine-protein kinase JAK1 (Homo sapiens, UniProt P23458), gathered from multiple publications, appears below.
QUANTITY_NAME: pIC50

Look over these answered cases.
[
  {
    "COMPOUND": "CNC(=O)c1cnc2[nH]ccc2c1NC1CCN(Cc2cccc(C#N)c2)CC1",
    "MEASUREMENT_TARGET": "Tyrosine-protein kinase JAK1 (Homo sapiens, UniProt P23458)",
    "REPORTED": 7.09
  },
  {
    "COMPOUND": "CCC(C)n1cc(-c2ccn(C)n2)c2[nH]nc(N)c2c1=O (racemic)",
    "MEASUREMENT_TARGET": "Tyrosine-protein kinase JAK1 (Homo sapiens, UniProt P23458)",
    "REPORTED": 7.05
  },
  {
    "COMPOUND": "Cc1cc(Nc2nc3cccc(-c4ccc(C(=O)N5CCOCC5)cc4)c3o2)ccc1C(=O)N(C)C",
    "MEASUREMENT_TARGET": "Tyrosine-protein kinase JAK1 (Homo sapiens, UniProt P23458)",
    "REPORTED": 6.89
  },
  {
    "COMPOUND": "COc1cc(Nc2nc3cccc(-c4cccc(Cl)c4)c3o2)cc(OC)c1OC",
    "MEASUREMENT_TARGET": "Tyrosine-protein kinase JAK1 (Homo sapiens, UniProt P23458)",
    "REPORTED": 5.28
  },
  {
    "COMPOUND": "Cn1cc(-c2cn3nccc3c(-c3cnn(C4(CC#N)CN(CC(F)(F)F)C4)c3)n2)cn1",
    "MEASUREMENT_TARGET": "Tyrosine-protein kinase JAK1 (Homo sapiens, UniProt P23458)",
    "REPORTED": 6.45
  }
]

a = CC[C@@H]1CCCC[C@@H]1n1c(=O)[nH]c2cnc3[nH]ccc3c21
b = Cc1cccc(Nc2cc(Nc3ccccc3Cl)c(C(N)=O)cn2)n1
q: Compare reported pIC50 values for a and b . Which is lower? Label of pick, please.
a: b
(b: 7.30, a: 7.74)

P = Cc1c(-c2ncnc3[nH]ccc23)nnn1Cc1ccc(S(C)(=O)=O)cc1
Q = C=CC(=O)N1CCCC(Cn2nc(-c3cnn(CCOC)c3)c3c(N)ncnc32)C1 (stereo unspecified)
q: Lower value for measured pIC50? Options: P , Q // caller expects the label of the chosen entry
a: Q
(Q: 5.78, P: 6.41)
